This collection of values is drawn from paper PMC2756588.

# TESTED_SYSTEM: T1, Sla1-3, P32790
# T1 sequence (P32790 344-424, looked up): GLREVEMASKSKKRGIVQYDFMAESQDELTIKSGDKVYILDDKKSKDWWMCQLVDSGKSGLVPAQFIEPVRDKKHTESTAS
# ASSAY_COMMENT: SPOT array
# SETTINGS: median of control spots 5475
Each item that follows carries a reported SPOT intensity.
Note: the reply should be a number with no unit written.

# example entries with known answers
>  <BINDER>
IFLRISINFPLNYPN

>  <SPOT intensity>
199

$$$$
>  <BINDER>
RRSKSLPTTPGIRSG

>  <SPOT intensity>
26

$$$$

Which SPOT intensity is reported for this binder? VYTRTAFQIPGDDKI
0

Which SPOT intensity is reported for this binder? QFDLKMPSKPIHNLK
0

Which SPOT intensity is reported for this binder? KIRRSSLMIPNPQQF
9

Which SPOT intensity is reported for this binder? SKIRPTPRKPSRMAT
21

Which SPOT intensity is reported for this binder? TIRRRAPLSLLESHT
38
